Tested on: PPARg:RXRa 90nM:30nM, anti-RXR (NR concentration 90 nM, RXRa partner concentration 30 nM)
test-name: PBM binding z-score (relative to random genomic background probes); higher = stronger binding; sequences stand for … in GC…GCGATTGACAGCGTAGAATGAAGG
Quick rule: PBM binding z-score of at least 2 means YES, below that means NO.

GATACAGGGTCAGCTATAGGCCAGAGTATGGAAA :: YES
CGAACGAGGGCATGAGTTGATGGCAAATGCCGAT :: NO
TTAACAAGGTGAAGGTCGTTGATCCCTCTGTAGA :: YES

Exam item: Form field: PBM binding z-score at least 2? Entry: `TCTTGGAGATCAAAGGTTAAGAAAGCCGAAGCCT`
Marked response: YES

Exam item: Is PBM binding z-score at least 2? Consider `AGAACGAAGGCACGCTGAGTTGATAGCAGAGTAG`
Marked response: NO

Exam item: Evaluate `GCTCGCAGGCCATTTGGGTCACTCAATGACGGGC` : PBM binding z-score at minimum 2?
Marked response: NO

Exam item: Form field: PBM binding z-score at least 2? Entry: `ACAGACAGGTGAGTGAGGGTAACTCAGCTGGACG`
Marked response: NO

Exam item: Reported PBM binding z-score at or above 2? `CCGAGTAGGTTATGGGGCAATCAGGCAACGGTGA`
Marked response: YES

---

Test system: RARb homodimer (NR concentration 270 nM)
test-name: PBM binding z-score (relative to random genomic background probes); higher = stronger binding; sequences stand for … in GC…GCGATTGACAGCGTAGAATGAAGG
Our labelling divides records by PBM binding z-score into ranges: lo = under 0.7, mid = from 0.7 up to 3, hi = 3 and over

Record excerpt, results attached:
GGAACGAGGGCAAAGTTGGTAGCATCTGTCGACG :: mid
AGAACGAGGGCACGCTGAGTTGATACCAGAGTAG :: mid
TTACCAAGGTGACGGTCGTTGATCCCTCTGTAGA :: mid
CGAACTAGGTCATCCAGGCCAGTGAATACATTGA :: hi
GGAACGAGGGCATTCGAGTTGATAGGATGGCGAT :: mid
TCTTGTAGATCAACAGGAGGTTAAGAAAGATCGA :: lo
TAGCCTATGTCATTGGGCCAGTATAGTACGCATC :: lo
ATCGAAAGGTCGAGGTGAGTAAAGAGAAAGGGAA :: mid
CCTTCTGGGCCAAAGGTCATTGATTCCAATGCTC :: hi
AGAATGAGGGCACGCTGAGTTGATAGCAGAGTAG :: mid

Exam item: Input `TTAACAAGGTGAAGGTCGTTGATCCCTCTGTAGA` ; output its category
Marked response: mid

Exam item: Which PBM binding z-score category applies to `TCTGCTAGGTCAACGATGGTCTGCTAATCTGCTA` here?
Marked response: mid

Exam item: // bin(item) where item = `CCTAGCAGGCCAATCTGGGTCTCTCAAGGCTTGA`
Marked response: lo

Exam item: Assign a bin to `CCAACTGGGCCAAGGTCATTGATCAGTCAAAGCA`
Marked response: hi

Exam item: Please report the category associated with `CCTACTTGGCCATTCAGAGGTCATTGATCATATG` , nothing else.
Marked response: hi

Exam item: Hello team, could you let me know which band the following sequence falls into: `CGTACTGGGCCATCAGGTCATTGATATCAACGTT`
Marked response: mid

Exam item: For this sequence, which bin applies? `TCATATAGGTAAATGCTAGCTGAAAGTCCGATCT`
Marked response: lo

Exam item: Returns: class label. Input: `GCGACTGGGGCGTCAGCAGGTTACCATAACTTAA`
Marked response: lo

Exam item: Please let me know in which category the item `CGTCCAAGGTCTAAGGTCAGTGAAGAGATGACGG` belongs.
Marked response: hi

Exam item: Class? Entry: `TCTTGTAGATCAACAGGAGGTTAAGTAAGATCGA`
Marked response: mid

Exam item: Which bin should I file `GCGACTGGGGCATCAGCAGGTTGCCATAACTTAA` under?
Marked response: lo

Exam item: State the class of the sequence shown: `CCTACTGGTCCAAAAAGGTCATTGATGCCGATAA`
Marked response: hi

Exam item: Each sequence maps to one class by PBM binding z-score. Which class for `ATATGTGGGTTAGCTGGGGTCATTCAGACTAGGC` ?
Marked response: hi

Exam item: Class (by measured PBM binding z-score) for `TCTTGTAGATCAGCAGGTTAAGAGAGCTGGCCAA`
Marked response: lo

Exam item: Hi there! Could you help me figure out the category for `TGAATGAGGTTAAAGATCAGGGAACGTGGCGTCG` please?
Marked response: lo

---

Tested on: RARg homodimer (NR concentration 270 nM)
test-name: PBM binding z-score (relative to random genomic background probes); higher = stronger binding; sequences stand for … in GC…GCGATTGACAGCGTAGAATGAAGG
quantity-measured: PBM binding z-score

Exam item: Which measured PBM binding z-score value corresponds to `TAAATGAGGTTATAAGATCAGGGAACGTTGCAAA` ?
Marked response: 0.975

Exam item: PBM binding z-score lookup needed for `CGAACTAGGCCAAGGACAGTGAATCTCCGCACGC` , thanks.
Marked response: 0.663

Exam item: Tell me the measured PBM binding z-score of `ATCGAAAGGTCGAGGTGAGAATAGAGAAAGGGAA` , please.
Marked response: 4.7

Exam item: Look up PBM binding z-score: `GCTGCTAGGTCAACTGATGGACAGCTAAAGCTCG`
Marked response: 5.36

Exam item: Entry `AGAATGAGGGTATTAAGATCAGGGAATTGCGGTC` has what PBM binding z-score?
Marked response: 0.0754

Exam item: Which measured PBM binding z-score value corresponds to `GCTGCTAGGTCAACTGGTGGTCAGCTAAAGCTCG` ?
Marked response: 5.36

Exam item: Suppose we examine the sequence `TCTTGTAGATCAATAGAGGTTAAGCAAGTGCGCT` ; what PBM binding z-score value has been reported?
Marked response: 0.343

Exam item: I have this sequence here, `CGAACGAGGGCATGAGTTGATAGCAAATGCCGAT` , and I need its recorded PBM binding z-score.
Marked response: 2

Exam item: If you can, please state the reported PBM binding z-score value of `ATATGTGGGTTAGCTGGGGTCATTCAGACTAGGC` .
Marked response: 2.93

Exam item: PBM binding z-score for `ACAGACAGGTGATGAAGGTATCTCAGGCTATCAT` ?
Marked response: 0.27

Exam item: Using the record for `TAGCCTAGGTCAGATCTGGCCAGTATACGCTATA` , report its PBM binding z-score.
Marked response: 3.49

Exam item: # PBM binding z-score lookup, item `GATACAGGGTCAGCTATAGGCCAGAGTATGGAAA`
Marked response: 4.73

---

Test system: PXR homodimer (NR concentration 270 nM)
test-name: PBM binding z-score (relative to random genomic background probes); higher = stronger binding; sequences stand for … in GC…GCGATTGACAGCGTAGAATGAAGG
quantity-measured: PBM binding z-score

Check out these entries, answers already filled in.
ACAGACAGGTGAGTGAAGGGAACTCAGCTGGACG :: -0.37
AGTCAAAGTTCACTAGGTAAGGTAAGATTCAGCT :: 2.61
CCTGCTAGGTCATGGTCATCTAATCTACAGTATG :: -0.321
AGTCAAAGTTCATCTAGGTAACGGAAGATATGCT :: 7.16
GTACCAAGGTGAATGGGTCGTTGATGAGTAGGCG :: 0.284

Let's switch to this sequence now.
Exam item: Entry `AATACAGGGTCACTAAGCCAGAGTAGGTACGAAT` : reported PBM binding z-score = ?
Marked response: 0.477

---

System: PPARg DBDmut IVT, anti-PPARg (DBD mutation: PPARg1 K132A/R137A, NR concentration 270 nM)
test-name: PBM binding z-score (relative to random genomic background probes); higher = stronger binding; sequences stand for … in GC…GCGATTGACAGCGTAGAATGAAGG
Form field: PBM binding z-score (one value per entry).
Give the figure only, with no unit attached.

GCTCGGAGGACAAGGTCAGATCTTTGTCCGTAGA :: -0.686
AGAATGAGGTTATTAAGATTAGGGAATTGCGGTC :: 0.542
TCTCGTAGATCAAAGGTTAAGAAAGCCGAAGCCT :: -0.642
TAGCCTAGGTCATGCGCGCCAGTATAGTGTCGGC :: 0.266
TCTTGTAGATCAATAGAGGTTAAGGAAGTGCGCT :: 0.773
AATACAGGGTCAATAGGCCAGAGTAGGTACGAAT :: 0.759
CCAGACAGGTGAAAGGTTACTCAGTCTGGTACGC :: 0.368
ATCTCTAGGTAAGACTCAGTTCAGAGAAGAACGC :: 0.9

Exam item: For `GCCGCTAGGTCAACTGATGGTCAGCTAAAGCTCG` , what is its reported PBM binding z-score?
Marked response: -0.213
